Assay: Half life in Sprague-Dawley rat at 50 mg/kg, po measured upto 24 hrs by HPLC/UV analysis
Type: ADME, organism-based
Conditions: in vivo
# half-life values compiled below

| MOLECULE SMILES | half-life |
| --- | --- |
| Nc1nccc(Oc2ccc3c(C(=O)Nc4ccc(F)c(C(F)(F)F)c4)cccc3c2)n1 | 4.5 h |
| Nc1cc(Oc2ccc3c(C(=O)Nc4cccc(C(F)(F)F)c4)cccc3c2)ncn1 | 10.1 h |

----------
# pIC50 values compiled below
System: HUVEC
Assay: Antiproliferative activity against VEGF-stimulated HUVEC cells assessed as cell growth inhibition measured after 24 hrs by BrdUrd incorporation based spectrophotometric analysis
Conditions: Homo sapiens
pIC50: −log10 of the molar value.
QUANTITY NAME: pIC50

| MOLECULE SMILES | NUMERIC READOUT |
| --- | --- |
| Nc1nccc(Oc2ccc3c(C(=O)Nc4ccc(F)c(C(F)(F)F)c4)cccc3c2)n1 | 10.11 |
| CCN(CC)CCNC(=O)c1c(C)[nH]c(/C=C2\C(=O)Nc3ccc(F)cc32)c1C | 8.15 |
| Clc1ccc(Nc2nnc(Cc3ccncc3)c3ccccc23)cc1.O=C(O)CCC(=O)O | 8.15 |
| Nc1cc(Oc2ccc3c(C(=O)Nc4ccc(F)c(C(F)(F)F)c4)cccc3c2)ncn1 | 11.52 |
| O=C(Nc1cccc(C(F)(F)F)c1)c1ccccc1NCc1ccncc1 | 9.00 |

----------
Experiment: Toxicity in C57BL/6jNpa mouse harbouring mouse B16-BL6 cells assessed as effect on animal well-being at 3 mg/kg, po qd administered started on day 7 post implantation measured after 21 days
Type: organism-based
Settings: in vivo, 504 h, time 7-21 day

| COMPOUND | Activity |
| --- | --- |
| Nc1cc(Oc2ccc3c(C(=O)Nc4ccc(F)c(C(F)(F)F)c4)cccc3c2)ncn1 | Non-Toxic |
| O=C(Nc1cccc(C(F)(F)F)c1)c1cccc2cc(Oc3cc(CO)ncn3)ccc12 [BFH-772] | Non-Toxic |
| Nc1cc(Oc2ccc3c(C(=O)Nc4cccc(C(F)(F)F)c4)cccc3c2)ncn1 | Non-Toxic |
| Nc1nccc(Oc2ccc3c(C(=O)Nc4cccc(C(F)(F)F)c4)cccc3c2)n1 | Non-Toxic |
| Nc1nccc(Oc2ccc3c(C(=O)Nc4ccc(F)c(C(F)(F)F)c4)cccc3c2)n1 | Non-Toxic |

----------
Test system: BaF3
Test: Antiproliferative activity against mouse BaF3 cells expressing Bcr-ABL assessed as cell growth inhibition measured after 72 hrs by Alamar Blue assay
Settings: BaF3, 72 h
pIC50: −log10 of the molar value.

| COMPOUND | STUDY TARGET | LIMIT QUALIFIER | pIC50 |
| --- | --- | --- | --- |
| Nc1cc(Oc2ccc3c(C(=O)Nc4ccc(F)c(C(F)(F)F)c4)cccc3c2)ncn1 | BaF3 | < | 5.00 |
| Nc1nccc(Oc2ccc3c(C(=O)Nc4cccc(C(F)(F)F)c4)cccc3c2)n1 | BaF3 | = | 5.32 |
| O=C(Nc1cccc(C(F)(F)F)c1)c1cccc2cc(Oc3cc(CO)ncn3)ccc12 [BFH-772] | BaF3 | = | 5.12 |
| CNC(=O)c1cc(Oc2ccc(NC(=O)Nc3ccc(Cl)c(C(F)(F)F)c3)cc2)ccn1 [SORAFENIB] | BaF3 | = | 5.24 |
| Nc1nccc(Oc2ccc3c(C(=O)Nc4ccc(F)c(C(F)(F)F)c4)cccc3c2)n1 | BaF3 | < | 5.00 |
| Nc1cc(Oc2ccc3c(C(=O)Nc4cccc(C(F)(F)F)c4)cccc3c2)ncn1 | BaF3 | = | 5.02 |
| Clc1ccc(Nc2nnc(Cc3ccncc3)c3ccccc23)cc1.O=C(O)CCC(=O)O | BaF3 | < | 5.00 |
| O=C(Nc1cccc(C(F)(F)F)c1)c1ccccc1NCc1ccncc1 | BaF3 | < | 5.26 |
| CCN(CC)CCNC(=O)c1c(C)[nH]c(/C=C2\C(=O)Nc3ccc(F)cc32)c1C [SUNITINIB] | BaF3 | = | 5.14 |

----------
Tested on: BaF3
Experiment: Antiproliferative activity against mouse BaF3 cells expressing ERBB2 V659E mutant assessed as cell growth inhibition measured after 72 hrs by Alamar Blue assay
Conditions: BaF3, 72 h

| MOLECULE SMILES | IC50 |
| --- | --- |
| Nc1nccc(Oc2ccc3c(C(=O)Nc4ccc(F)c(C(F)(F)F)c4)cccc3c2)n1 | > 10 µM |
| Clc1ccc(Nc2nnc(Cc3ccncc3)c3ccccc23)cc1.O=C(O)CCC(=O)O | > 10 µM |
| CNC(=O)c1cc(Oc2ccc(NC(=O)Nc3ccc(Cl)c(C(F)(F)F)c3)cc2)ccn1 | 4.21 µM |
| Nc1cc(Oc2ccc3c(C(=O)Nc4cccc(C(F)(F)F)c4)cccc3c2)ncn1 | > 10 µM |
| Nc1cc(Oc2ccc3c(C(=O)Nc4ccc(F)c(C(F)(F)F)c4)cccc3c2)ncn1 | > 10 µM |
| O=C(Nc1cccc(C(F)(F)F)c1)c1ccccc1NCc1ccncc1 | 5.6 µM |
| Nc1nccc(Oc2ccc3c(C(=O)Nc4cccc(C(F)(F)F)c4)cccc3c2)n1 | > 10 µM |
| CCN(CC)CCNC(=O)c1c(C)[nH]c(/C=C2\C(=O)Nc3ccc(F)cc32)c1C | 3.85 µM |
| O=C(Nc1cccc(C(F)(F)F)c1)c1cccc2cc(Oc3cc(CO)ncn3)ccc12 | > 10 µM |

----------
Assay: Oral bioavailability in OFA rat at 3 mg/kg measured upto 24 hrs by HPLC/UV analysis
Format: ADME, organism-based
Conditions: in vivo

| COMPOUND | UNIT STRING | bioavailability |
| --- | --- | --- |
| O=C(Nc1cccc(C(F)(F)F)c1)c1cccc2cc(Oc3cc(CO)ncn3)ccc12 [BFH-772] | % | 46 |

----------
Biological target: Insulin-like growth factor 1 receptor (Homo sapiens)
Sequence (P08069 31-736 limits assumed): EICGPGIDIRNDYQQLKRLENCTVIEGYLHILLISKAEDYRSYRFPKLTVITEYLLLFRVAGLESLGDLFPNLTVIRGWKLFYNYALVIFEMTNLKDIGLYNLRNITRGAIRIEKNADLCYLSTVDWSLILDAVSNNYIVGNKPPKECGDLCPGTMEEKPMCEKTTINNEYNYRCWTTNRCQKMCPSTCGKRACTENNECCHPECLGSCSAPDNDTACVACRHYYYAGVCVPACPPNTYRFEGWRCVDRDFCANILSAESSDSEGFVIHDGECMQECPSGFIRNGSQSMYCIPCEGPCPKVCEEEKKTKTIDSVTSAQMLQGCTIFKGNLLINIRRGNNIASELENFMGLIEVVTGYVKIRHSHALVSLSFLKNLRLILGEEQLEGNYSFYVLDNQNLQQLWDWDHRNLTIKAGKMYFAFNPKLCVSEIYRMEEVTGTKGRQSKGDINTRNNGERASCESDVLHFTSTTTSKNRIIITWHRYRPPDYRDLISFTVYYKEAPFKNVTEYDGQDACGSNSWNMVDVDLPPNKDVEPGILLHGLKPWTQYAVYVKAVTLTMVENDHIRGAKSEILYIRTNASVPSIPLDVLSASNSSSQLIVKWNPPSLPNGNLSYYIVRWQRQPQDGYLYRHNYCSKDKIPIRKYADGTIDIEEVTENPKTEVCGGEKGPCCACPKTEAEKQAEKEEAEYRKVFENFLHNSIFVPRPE
Sequence (P08069 741-1367 limits assumed): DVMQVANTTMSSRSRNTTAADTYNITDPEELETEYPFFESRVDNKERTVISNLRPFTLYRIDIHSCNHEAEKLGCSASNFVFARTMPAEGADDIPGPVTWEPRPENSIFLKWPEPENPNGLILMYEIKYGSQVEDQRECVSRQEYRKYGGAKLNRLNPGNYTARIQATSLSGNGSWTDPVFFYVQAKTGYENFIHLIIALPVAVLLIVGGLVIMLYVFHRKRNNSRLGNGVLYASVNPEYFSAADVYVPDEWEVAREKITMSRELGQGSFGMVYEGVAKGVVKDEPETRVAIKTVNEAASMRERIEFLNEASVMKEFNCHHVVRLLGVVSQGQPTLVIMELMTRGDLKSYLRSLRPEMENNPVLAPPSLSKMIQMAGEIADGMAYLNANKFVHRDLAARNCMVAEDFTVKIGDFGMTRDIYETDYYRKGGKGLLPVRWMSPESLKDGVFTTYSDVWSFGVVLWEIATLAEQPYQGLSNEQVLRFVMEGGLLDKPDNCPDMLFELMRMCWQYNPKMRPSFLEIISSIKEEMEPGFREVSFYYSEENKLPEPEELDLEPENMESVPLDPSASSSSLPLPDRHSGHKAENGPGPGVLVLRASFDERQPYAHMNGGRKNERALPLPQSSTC
Test: Inhibition of IGF1R (unknown origin) autophosphorylation expressed in […] by ELISA-based assay
QUANTITY NAME: IC50

| MOLECULE SMILES | RESULT |
| --- | --- |
| Nc1nccc(Oc2ccc3c(C(=O)Nc4cccc(C(F)(F)F)c4)cccc3c2)n1 | > 500 nM |
| O=C(Nc1cccc(C(F)(F)F)c1)c1cccc2cc(Oc3cc(CO)ncn3)ccc12 | > 500 nM |

----------
Assay: Volume of distribution at steady state in OFA rat at 2.5 mg/kg, iv measured upto 24 hrs by HPLC/UV analysis
Assay type: ADME, organism-based
Conditions: in vivo, read-out: Vdss

| MOLECULE SMILES | UNIT STRING | Vd |
| --- | --- | --- |
| Nc1nccc(Oc2ccc3c(C(=O)Nc4cccc(C(F)(F)F)c4)cccc3c2)n1 | L/kg | 1.3 |

----------
# clearance values compiled below
Assay: Clearance in Sprague-Dawley rat at 3 mg/kg, iv measured upto 24 hrs by HPLC/UV analysis
Type: ADME, organism-based
Details: in vivo
QUANTITY NAME: clearance (mL/min/kg)

| MOLECULE SMILES | NUMERIC READOUT |
| --- | --- |
| Nc1cc(Oc2ccc3c(C(=O)Nc4cccc(C(F)(F)F)c4)cccc3c2)ncn1 | 3 |
| Nc1nccc(Oc2ccc3c(C(=O)Nc4ccc(F)c(C(F)(F)F)c4)cccc3c2)n1 | 2.83 |
| Nc1cc(Oc2ccc3c(C(=O)Nc4ccc(F)c(C(F)(F)F)c4)cccc3c2)ncn1 | 0.833 |

----------
System: BaF3
Assay: Antiproliferative activity against mouse BaF3 cells expressing KIT D816V mutant assessed as cell growth inhibition measured after 72 hrs by Alamar Blue assay
Settings: BaF3, 72 h
pIC50: −log10 of the molar value.
# pIC50 values compiled below

| MOLECULE SMILES | LIMIT QUALIFIER | pIC50 |
| --- | --- | --- |
| CNC(=O)c1cc(Oc2ccc(NC(=O)Nc3ccc(Cl)c(C(F)(F)F)c3)cc2)ccn1 | = | 5.55 |
| O=C(Nc1cccc(C(F)(F)F)c1)c1ccccc1NCc1ccncc1 | < | 5.26 |
| O=C(Nc1cccc(C(F)(F)F)c1)c1cccc2cc(Oc3cc(CO)ncn3)ccc12 | < | 5.00 |
| Nc1cc(Oc2ccc3c(C(=O)Nc4ccc(F)c(C(F)(F)F)c4)cccc3c2)ncn1 | = | 5.11 |
| Nc1nccc(Oc2ccc3c(C(=O)Nc4cccc(C(F)(F)F)c4)cccc3c2)n1 | < | 5.00 |
| Nc1cc(Oc2ccc3c(C(=O)Nc4cccc(C(F)(F)F)c4)cccc3c2)ncn1 | = | 5.10 |
| Nc1nccc(Oc2ccc3c(C(=O)Nc4ccc(F)c(C(F)(F)F)c4)cccc3c2)n1 | = | 5.07 |
| CCN(CC)CCNC(=O)c1c(C)[nH]c(/C=C2\C(=O)Nc3ccc(F)cc32)c1C | = | 5.83 |
| Clc1ccc(Nc2nnc(Cc3ccncc3)c3ccccc23)cc1.O=C(O)CCC(=O)O | < | 5.00 |
